Assay: Pilot PK study of orally applied KB-R7943 in control and STZ-induced diabetic rats (LC-MS/MS)
Assay type: in vivo, rat
Conditions: Wistar, rat, hippocampus, po, 10 mg/kg, STZ-diabetic rats, 10 mg/kg p.o. once
property-measured: AUC(0-inf) (ng·h/mL)

1) N=C(N)SCCc1ccc(OCc2ccc([N+](=O)[O-])cc2)cc1 [KB-R7943]; 865

====

Experiment: Pilot PK study of orally applied KB-R7943 in control and STZ-induced diabetic rats (LC-MS/MS)
Assay type: in vivo, rat
Conditions: Wistar, rat, urine, po, 10 mg/kg, urine, control rats, 10 mg/kg p.o. once; read-out: AUC(0-24)
property-measured: AUC(0-t) (ng·h/mL)

1. N=C(N)SCCc1ccc(OCc2ccc([N+](=O)[O-])cc2)cc1; 727
